Test system: Plasmodium falciparum
Experiment: Antiplasmodial activity against late stage (IV/V) gametocytes of Plasmodium falciparum 3D7 harboring luc7 incubated for 72 hrs by ONE-Glo luciferase assay
Type: functional, organism-based
Settings: 3D7, 72 h
pEC50: −log10 of the molar value.

- smilesEntry: "Clc1ccc2nc(/C=C/c3ccncc3)cc(NCCCCn3cc(CN4CCCCC4)nn3)c2c1"
  pEC50: 6.05
